Data credit: PubChem BioAssay AID1224864

molecular target: Cystic fibrosis transmembrane conductance regulator (Homo sapiens) (UniProt P13569); assay: F508del-CFTR plasma membrane relocalization enhancers – imaging, HeLa, high-content microscopy, immunofluorescence, primary screen (AID 1224864); conditions: PM immunofluorescence imaging, 24 h, at 10 µM, stronger effect = higher value, relative to vehicle wells set at 100; measured here: total cellular F508del-CFTR signal;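 further: HeLa cells stably expressing F508del-CFTR stained with 3G11 antibody against NBD1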
Sequence (P13569 whole entry, looked up, stated change not applied): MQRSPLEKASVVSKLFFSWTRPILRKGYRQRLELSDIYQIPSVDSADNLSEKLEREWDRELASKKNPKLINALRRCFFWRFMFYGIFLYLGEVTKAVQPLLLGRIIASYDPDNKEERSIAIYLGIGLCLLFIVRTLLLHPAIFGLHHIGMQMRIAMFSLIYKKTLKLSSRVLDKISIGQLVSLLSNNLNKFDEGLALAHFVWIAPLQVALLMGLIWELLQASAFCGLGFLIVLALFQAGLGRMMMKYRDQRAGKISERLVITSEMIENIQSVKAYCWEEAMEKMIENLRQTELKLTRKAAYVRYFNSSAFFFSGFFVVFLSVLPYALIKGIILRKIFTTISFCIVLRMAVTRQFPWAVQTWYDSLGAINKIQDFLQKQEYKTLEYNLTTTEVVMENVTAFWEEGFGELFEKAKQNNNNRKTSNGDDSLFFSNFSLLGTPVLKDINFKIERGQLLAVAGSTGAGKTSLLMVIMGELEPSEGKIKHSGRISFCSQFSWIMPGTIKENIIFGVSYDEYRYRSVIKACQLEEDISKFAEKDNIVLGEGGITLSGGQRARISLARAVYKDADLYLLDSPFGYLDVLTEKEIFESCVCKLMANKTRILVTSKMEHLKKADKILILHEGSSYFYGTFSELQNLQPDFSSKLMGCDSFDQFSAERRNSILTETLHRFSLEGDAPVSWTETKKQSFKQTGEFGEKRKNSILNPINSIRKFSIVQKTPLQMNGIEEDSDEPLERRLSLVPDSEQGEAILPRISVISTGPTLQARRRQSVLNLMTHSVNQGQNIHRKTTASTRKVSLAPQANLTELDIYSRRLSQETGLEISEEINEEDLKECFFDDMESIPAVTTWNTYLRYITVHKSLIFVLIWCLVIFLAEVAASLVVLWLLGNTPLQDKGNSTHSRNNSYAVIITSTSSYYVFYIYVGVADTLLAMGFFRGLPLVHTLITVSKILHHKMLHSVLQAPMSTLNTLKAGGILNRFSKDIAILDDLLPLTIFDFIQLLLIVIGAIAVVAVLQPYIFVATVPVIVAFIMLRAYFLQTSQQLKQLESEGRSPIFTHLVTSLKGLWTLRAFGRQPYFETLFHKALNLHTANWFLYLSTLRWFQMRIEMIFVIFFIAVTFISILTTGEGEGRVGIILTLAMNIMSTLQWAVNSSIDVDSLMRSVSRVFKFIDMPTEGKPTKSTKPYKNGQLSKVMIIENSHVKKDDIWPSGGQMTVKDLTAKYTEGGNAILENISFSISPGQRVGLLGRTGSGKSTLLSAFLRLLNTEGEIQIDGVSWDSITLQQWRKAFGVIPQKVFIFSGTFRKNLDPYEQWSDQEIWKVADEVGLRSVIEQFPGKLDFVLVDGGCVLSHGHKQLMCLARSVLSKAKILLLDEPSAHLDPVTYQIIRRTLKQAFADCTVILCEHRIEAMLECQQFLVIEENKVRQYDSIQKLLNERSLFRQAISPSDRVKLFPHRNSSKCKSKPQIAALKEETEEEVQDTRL
The campaign covered roughly 2,000 compounds. About 20 (1%) were called active. The list comes from a sample in which actives are over-represented; it also holds close analogues and randomly drawn compounds.
Reported total CFTR intensity is given for each of the following compounds.
Value type: total CFTR intensity (%)

1) CN(C)c1ccc(CNCCC(Cc2ccccc2)c2ccco2)cc1 (stereo unspecified) ... 41
2) O=C(NNC(=O)c1cccs1)c1ccco1 ... 90
3) CC1=C/C(=N\N=C2/NC(=O)C(CC(=O)Nc3ccccc3F)S2)CC(C)(C)C1 (stereo unspecified) ... 65
4) COc1ccc2c(CC(=O)NCC3CCC(C(=O)O)CC3)cc(=O)oc2c1 (stereo unspecified) ... 94
5) Cc1cc(C(=O)NC(CC(C)C)C(=O)O)cc(C)c1[N+](=O)[O-] (stereo unspecified) ... 71
6) O=C(CN1C(=O)c2ccccc2S1(=O)=O)Nc1ccccc1 ... 82
